procedure summary: Mean residence time in BALB/c mouse at 30 mg/kg, po
Format: ADME, organism-based
Design: dose 30 mg/kg, route oral
experimental parameters: in vivo
result type: MRT (h)
Numbers only; they are read as h.

O=C(NC[C@@H]1C[C@@H](F)CN1)c1ccc(-c2cnc3ccc(NC4CCC4)nn23)cc1F
2

Measured MRT of O=C(NC[C@@H]1C[C@@H](F)CN1)c1ccc(-c2cnc3ccc(NCC4CC4)nn23)cc1F : 2.3

---

procedure summary: Octanol-phosphate buffered saline distribution coefficient, log D of the compound at pH 7.4
Type: physicochemical
Binary call on logD with cut-off 3: strictly below means true, and equality or higher means false.

Use these answered entries as a reference point.
O=C(c1ccc(-c2cnc3ccc(NCC4CC4)nn23)cc1)N(Cc1ccc(Cl)cc1)C[C@@H]1C[C@@H](F)CN1
false
CN(C)CCNC(=O)c1ccc(-c2cnc3ccc(NCC4CC4)nn23)cc1F
true
O=C(NCCN1CCCC1)c1ccc(-c2cnc3ccc(NCC4CC4)nn23)cc1F
true
O=C(NC[C@@H]1C[C@@H](F)CN1)c1ccc(-c2cnc3ccc(NC4CCCC4)nn23)cc1F
false
O=C(NCCN1CCCC1)c1ccc(-c2cnc3ccc(NCC4CC4)nn23)nc1
true
O=C(NC[C@@H]1C[C@@H](F)CN1)c1ccc(-c2cnc3ccc(NCCCF)nn23)cc1F
true
O=C(NC[C@@H]1CCCN1)c1ccc(-c2cnc3ccc(NCC4CC4)nn23)cc1Cl
true
CCCCNc1ccc2ncc(-c3ccc(C(=O)NC[C@@H]4C[C@@H](F)CN4)c(F)c3)n2n1
false
O=C(NC[C@@H]1C[C@@H](F)CN1)c1ccc(-c2cnc3ccc(NCCCCCF)nn23)cc1F
false
O=C(NC[C@@H]1C[C@@H](F)CN1)c1ccc(-c2cnc3ccc(NC4CCC4)nn23)cc1F
false

Given O=C(NC[C@@H]1C[C@@H](F)CN1)c1ccc(-c2cnc3ccc(NCCCCF)nn23)cc1F , is recorded logD strictly lower than 3?
true

Is logD of CCCCCNc1ccc2ncc(-c3ccc(C(=O)NC[C@@H]4C[C@@H](F)CN4)c(F)c3)n2n1 strictly below 3?
false

Confirm or reject: logD of CN(C)CCNC(=O)c1ccc(-c2cnc3ccc(NCC4CC4)nn23)nc1 lies strictly below 3
true

Is 3 strictly greater than the compound's reported logD? compound: CSCCNc1ccc2ncc(-c3ccc(C(=O)NC[C@@H]4C[C@@H](F)CN4)c(F)c3)n2n1
true

Criterion: logD strictly below 3. Is it met by O=C(NC[C@@H]1C[C@@H](F)CN1)c1ccc(-c2cnc3ccc(NCC4CC4)nn23)cc1F ?
false

Report whether reported logD is lower than 3 (strictly) for CCCNc1ccc2ncc(-c3ccc(C(=O)NC[C@@H]4C[C@@H](F)CN4)c(F)c3)n2n1
false

Record O=C(NC[C@@H]1CCCN1)c1ccc(-c2cnc3ccc(NCC4CC4)nn23)cc1F : is its logD strictly below 3?
true

Take the compound CN(C)CCNC(=O)c1ccc(-c2cnc3ccc(NCC4CC4)nn23)cc1 and say whether its logD is less than 3.
true

Dear reviewer, please state whether O=C(NC[C@@H]1CCCN1)c1ccc(-c2cnc3ccc(NCC4CC4)nn23)cc1 has logD strictly beneath 3.
true

Consider CCCN(C[C@@H]1C[C@@H](F)CN1)C(=O)c1ccc(-c2cnc3ccc(NCC4CC4)nn23)cc1 . Does its logD lie strictly below 3?
false

Lab note: logD threshold 3. Does this compound come in strictly under it? O=C(NCCN1CCCC1)c1ccc(-c2cnc3ccc(NCC4CC4)nn23)cc1
true

---

procedure summary: AUC (0 to 24 hrs) in Wister-Lewis rat at 30 mg/kg, po
Type: ADME, organism-based
Parameters: time < 24 hr, dose 30 mg/kg, route oral
experimental parameters: plasma
result type: AUC(0-t) at 24 h (ng·h/mL)
Quick reminder: number only, in ng·h/mL, skip the unit.

O=C(NC[C@@H]1C[C@@H](F)CN1)c1ccc(-c2cnc3ccc(NCC4CC4)nn23)cc1F
23100

Now turn to the next compound.
Per the records, this compound ( O=C(NC[C@@H]1C[C@@H](F)CN1)c1ccc(-c2cnc3ccc(NC4CCC4)nn23)cc1F ) has AUC(0-t) at 24 h equal to 95300

---

procedure summary: Mean residence time in Wister-Lewis rat at 30 mg/kg, po
Type: ADME, organism-based
Design: dose 30 mg/kg, route oral
experimental parameters: in vivo
result type: MRT

O=C(NC[C@@H]1C[C@@H](F)CN1)c1ccc(-c2cnc3ccc(NC4CCC4)nn23)cc1F
5.1 h

Here is the next item to consider.
Recorded MRT (compound O=C(NC[C@@H]1C[C@@H](F)CN1)c1ccc(-c2cnc3ccc(NCC4CC4)nn23)cc1F ): 4.9 h

---

Each record here notes measured concentration at […].
procedure summary: Plasma concentration in BALB/c mouse at 30 mg/kg, po after 90 mins
Type: ADME, organism-based
Parameters: dose 30 mg/kg, route oral
Report the value in ng/mL with no unit label.

Examples with answers:
CN(C)CCNC(=O)c1ccc(-c2cnc3ccc(NCC4CC4)nn23)cc1F
110
O=C(NC[C@@H]1C[C@@H](F)CN1)c1ccc(-c2cnc3ccc(NCCCCCF)nn23)cc1F
110
O=C(NC[C@@H]1C[C@@H](F)CN1)c1ccc(-c2cnc3ccc(NC4CCC4)nn23)cc1F
1400
CCCNc1ccc2ncc(-c3ccc(C(=O)NC[C@@H]4C[C@@H](F)CN4)c(F)c3)n2n1
540
O=C(NC[C@@H]1CCCN1)c1ccc(-c2cnc3ccc(NCC4CC4)nn23)cc1F
140

Reported concentration at […] of CCCCNc1ccc2ncc(-c3ccc(C(=O)NC[C@@H]4C[C@@H](F)CN4)c(F)c3)n2n1 : 600

So for O=C(NC[C@@H]1C[C@@H](F)CN1)c1ccc(-c2cnc3ccc(NCC4CC4)nn23)cc1F , the logged concentration at […] turned out to be 380

---

// Cmax lookup, one value per entry
procedure summary: Cmax in Wister-Lewis rat at 30 mg/kg, po
Format: ADME, organism-based
Set-up: dose 30 mg/kg, route oral
experimental parameters: in vivo
Write the number in ng/mL without appending the unit.

O=C(NC[C@@H]1C[C@@H](F)CN1)c1ccc(-c2cnc3ccc(NCC4CC4)nn23)cc1F
4100

Consider now this further compound.
Cmax recorded for this compound, O=C(NC[C@@H]1C[C@@H](F)CN1)c1ccc(-c2cnc3ccc(NC4CCC4)nn23)cc1F , is 16000

---

Entries and their measured Tmax follow.
procedure summary: Tmax in Wister-Lewis rat at 30 mg/kg, po
Assay type: ADME, organism-based
Parameters: dose 30 mg/kg, route oral
experimental parameters: in vivo
Please state the figure in h; there is no need to write the unit.

O=C(NC[C@@H]1C[C@@H](F)CN1)c1ccc(-c2cnc3ccc(NCC4CC4)nn23)cc1F
4

# evaluate next
Summary for this compound, O=C(NC[C@@H]1C[C@@H](F)CN1)c1ccc(-c2cnc3ccc(NC4CCC4)nn23)cc1F : Tmax is 2.8

---

procedure summary: Permeability of the compound at pH 7.4 by PAMPA method
Assay type: ADME
experimental parameters: read-out: permeability
result type: Papp (×10⁻⁶ cm/s)
Report only the number, with the unit ×10⁻⁶ cm/s understood.

Some solved entries appear below for comparison.
CSCCCNc1ccc2ncc(-c3ccc(C(=O)NC[C@@H]4C[C@@H](F)CN4)c(F)c3)n2n1
40
CN(C)CCNC(=O)c1ccc(-c2cnc3ccc(NCC4CC4)nn23)nc1
14
O=C(NC[C@@H]1CCCN1)c1ccc(-c2cnc3ccc(NCC4CC4)nn23)cc1
0.84
O=C(NC[C@@H]1C[C@@H](F)CN1)c1ccc(-c2cnc3ccc(NCCCF)nn23)cc1F
33
O=C(NC[C@@H]1C[C@@H](F)CN1)c1ccc(-c2cnc3ccc(NCCCCCF)nn23)cc1F
37

Given item O=C(NC[C@@H]1CCCN1)c1ccc(-c2cnc3ccc(NCC4CC4)nn23)cc1F , the value recorded as its Papp is 19

O=C(NC[C@@H]1CCCN1)c1ccc(-c2cnc3ccc(NCC4CC4)nn23)cc1Cl has a reported Papp of 14

get_value(item= O=C(NCCN1CCCC1)c1ccc(-c2cnc3ccc(NCC4CC4)nn23)nc1 , readout=Papp) returns 11

---

procedure summary: Tmax in BALB/c mouse at 30 mg/kg, po
Assay type: ADME, organism-based
Parameters: dose 30 mg/kg, route oral
experimental parameters: in vivo
result type: Tmax (h)
# output: bare number, implied unit h

O=C(NC[C@@H]1C[C@@H](F)CN1)c1ccc(-c2cnc3ccc(NCC4CC4)nn23)cc1F
1

Let's switch to this compound now.
Note to self: Tmax recorded for O=C(NC[C@@H]1C[C@@H](F)CN1)c1ccc(-c2cnc3ccc(NC4CCC4)nn23)cc1F was 1

---

procedure summary: Apparent permeability across MDCK cells at 10 uM after 1 hr by LC/MS/MS analysis
Assay type: ADME, cell-based, Canis lupus familiaris
experimental parameters: dog
result type: Papp at 1 h, 10 µM (×10⁻⁶ cm/s)
Only the number, expressed in ×10⁻⁶ cm/s, is required.

Before answering, review these 4 worked examples.
CN(C)CCNC(=O)c1ccc(-c2cnc3ccc(NCC4CC4)nn23)cc1
2.1
O=C(NC[C@@H]1C[C@@H](F)CN1)c1ccc(-c2cnc3ccc(NC4CCC4)nn23)cc1F
7
O=C(NCCN1CCCC1)c1ccc(-c2cnc3ccc(NCC4CC4)nn23)cc1
2.3
O=C(NCCN1CCCC1)c1ccc(-c2cnc3ccc(NCC4CC4)nn23)cc1F
5.6

The recorded Papp at 1 h, 10 µM for entry O=C(NC[C@@H]1C[C@@H](F)CN1)c1ccc(-c2cnc3ccc(NCC4CC4)nn23)cc1F equals 4.2

Summary for this molecule, CN(C)CCNC(=O)c1ccc(-c2cnc3ccc(NCC4CC4)nn23)cc1F : Papp at 1 h, 10 µM is 6.2
